target_or_test_system: CyclinB1/CDK1 (Homo sapiens)
Construct: purchased Eurofins, discovery 14-450
protocol_details: Fluorescence Polarization (FP) competitive binding assay, Cyclin B1/Cdk1
settings: 10 nM Cyclin B1/Cdk1, 2 nM FAM probe; average of 2-3 independent experiments; read-out: Cyclin B FP IC50
*1 amine or outer side, *2 acyl side, *3 side chain or, on linkers, in order; H or OH if unused. Where a SMILES comes first, the peptide text is derived from it. Bridges are numbered along the chain shown (N, C = ends). [ ]: non-standard residue; d: D form. The star is where a group is joined. X90 = CC(=O)N1CC=C(c2ccc(Cl)cc2C[C@@H](C(=O)[*:2])N(C)[*:1])CC1; NMe(hhhLys) = CN([C@@H](CCCCCCCN[*:3])C(=O)[*:2])[*:1]; cBuCO(3,3-F2-1-CF3) = O=C(C1(C(F)(F)F)CC(F)(F)C1)*; Pro(trans-4-F) = O=C(O)[C@@H]1C[C@@H](F)CN1; Gly(cPr) = N[C@H](C(=O)O)C1CC1
measured_property: pIC50
The read-out pIC50 is expressed as -log10 of concentration in moles per litre.

Problem: Param item = CC(=O)N1CC=C(c2ccc(Cl)cc2C[C@H]2C(=O)NCCCCCCC[C@H](N(C)C(=O)[C@@H](NC(=O)[C@@H]3C[C@@H](F)CN3C(=O)C3(C(F)(F)F)CC(F)(F)C3)C3CC3)C(=O)N[C@@H](CC(C)C)C(=O)N2C)CC1 [Example 20] ({cBuCO(3,3-F2-1-CF3)}-[Pro(trans-4-F)][Gly(cPr)][NMe(hhhLys)]L[X90]; lactam 3-C) ; retrieve measured pIC50.
Solution: 7.70

Problem: Next record, please: "CC(C)C[C@@H]1NC(=O)[C@@H](N(C)C(=O)[C@@H](NC(=O)[C@@H]2C[C@@H](F)CN2C(=O)C2(C(F)(F)F)CC(F)(F)C2)C2CC2)C/C=C\CCCCN(C)C(=O)[C@H](Cc2cc(F)ccc2-c2cnn(S(C)(=O)=O)c2)N(C)C1=O"
Solution: 7.70

---

Tested on: NCI-H1048 cells
protocol_details: MTT proliferation assay, NCI-H1048;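 note: Dose-response in 96-well plates over 8 or 10 concentration points, with exposure spanning 3-4 cell doublings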
Format: cell-based
settings: 5 days compound exposure, 1:3 serial dilution starting at 10 μM
*1 amine or outer side, *2 acyl side, *3 side chain or, on linkers, in order; H or OH if unused. Where a SMILES comes first, the peptide text is derived from it. Bridges are numbered along the chain shown (N, C = ends). [ ]: non-standard residue; d: D form. The star is where a group is joined. X119 = CC(=O)N1C2C=C(c3ccc(F)cc3C[C@@H](C(=O)[*:2])N(C)[*:1])CC1COC2; NMehhhLys(Me) = CN([C@@H](CCCCCCCN(C)[*:3])C(=O)[*:2])[*:1]; X156 = CN([C@@H](Cc1cc(Cl)cc2ccccc12)C(=O)[*:2])[*:1]; cBuCO(3,3-F2-1-CF3) = O=C(C1(C(F)(F)F)CC(F)(F)C1)*; Pro(trans-4-F) = O=C(O)[C@@H]1C[C@@H](F)CN1; Gly(cPr) = N[C@H](C(=O)O)C1CC1
I'd appreciate it if you could supply GI50 values for the items below.
Write the answer as a number in nM, unit excluded.

Problem: Enter reported GI50 observed with NCI-H1048 cells for CC(=O)N1C2C=C(c3ccc(F)cc3C[C@H]3C(=O)N(C)CCCCCCC[C@H](N(C)C(=O)[C@@H](NC(=O)[C@@H]4C[C@@H](F)CN4C(=O)C4(C(F)(F)F)CC(F)(F)C4)C4CC4)C(=O)N[C@@H](CC(C)C)C(=O)N3C)CC1COC2 (stereo partly drawn) [Example 124] ({cBuCO(3,3-F2-1-CF3)}-[Pro(trans-4-F)][Gly(cPr)][NMehhhLys(Me)]L[X119]; lactam 3-C)
Solution: 20

Problem: Next record, please: CC(C)C[C@@H]1NC(=O)[C@@H](N(C)C(=O)[C@@H](NC(=O)[C@@H]2C[C@@H](F)CN2C(=O)C2(C(F)(F)F)CC(F)(F)C2)C2CC2)CC=CCCCCNC(=O)[C@H](Cc2cc(F)cnc2OC2CC2)N(C)C1=O [Example 125]
Solution: 490

Problem: Next record, please: CC(C)C[C@@H]1NC(=O)[C@@H](N(C)C(=O)[C@@H](NC(=O)[C@@H]2C[C@@H](F)CN2C(=O)C2(C(F)(F)F)CC(F)(F)C2)C2CC2)CCCCCCCN(C)C(=O)[C@H](Cc2cc(Cl)cc3ccccc23)N(C)C1=O [Example 425] ({cBuCO(3,3-F2-1-CF3)}-[Pro(trans-4-F)][Gly(cPr)][NMehhhLys(Me)]L[X156]; lactam 3-C)
Solution: 160

---

target_or_test_system: CyclinB1/CDK1 (Homo sapiens, UniProt P14635)
Construct: purchased Eurofins, discovery 14-450
protocol_details: Fluorescence Polarization (FP) competitive binding assay, Cyclin B1/Cdk1;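 note: fluorescence polarization read after equilibration at room temperature, with IC50 taken from serially diluted dose-response curves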
settings: 10 nM Cyclin B1/Cdk1, 2 nM FAM probe; average of 2-3 independent experiments; read-out: Cyclin B FP IC50
*1 amine or outer side, *2 acyl side, *3 side chain or, on linkers, in order; H or OH if unused. Where a SMILES comes first, the peptide text is derived from it. Bridges are numbered along the chain shown (N, C = ends). [ ]: non-standard residue; d: D form. The star is where a group is joined. X50 = CN([C@@H](Cc1cc(Cl)ccc1-c1ccc(N2CCN(C3COC3)CC2)cc1)C(=O)[*:2])[*:1]; NMeAla(5-Cl-2-cPrO-3-pyridyl) = CN[C@@H](Cc1cc(Cl)cnc1OC1CC1)C(=O)O; NMehhhLys(Me) = CN([C@@H](CCCCCCCN(C)[*:3])C(=O)[*:2])[*:1]; Cyclobutanecarbonyl(1-CF3) = O=C(C1(C(F)(F)F)CCC1)*; cBuCO(3,3-F2-1-CF3) = O=C(C1(C(F)(F)F)CC(F)(F)C1)*; Pro(trans-4-F) = O=C(O)[C@@H]1C[C@@H](F)CN1; Gly(cPr) = N[C@H](C(=O)O)C1CC1
I'd appreciate it if you could supply IC50 values for the items below.
Write the answer as a number in nM, unit excluded.

Problem: Param item = CC(C)C[C@@H]1NC(=O)[C@@H](N(C)C(=O)[C@@H](NC(=O)[C@@H]2C[C@@H](F)CN2C(=O)C2(C(F)(F)F)CC(F)(F)C2)C2CC2)CCCCCCCN(C)C(=O)[C@H](Cc2cc(Cl)ccc2-c2ccc(N3CCN(C4COC4)CC3)cc2)N(C)C1=O [Example 346] ({cBuCO(3,3-F2-1-CF3)}-[Pro(trans-4-F)][Gly(cPr)][NMehhhLys(Me)]L[X50]; lactam 3-C) ; retrieve measured IC50.
Solution: 20

Problem: Next record, please: CC(C)C[C@@H]1NC(=O)[C@@H](N(C)C(=O)[C@@H](NC(=O)[C@@H]2C[C@@H](F)CN2C(=O)C2(C(F)(F)F)CCC2)C2CC2)CCCCCCCN(C)C(=O)[C@H](Cc2cc(Cl)cnc2OC2CC2)N(C)C1=O [Example 109] ({Cyclobutanecarbonyl(1-CF3)}-[Pro(trans-4-F)][Gly(cPr)][NMehhhLys(Me)]L[NMeAla(5-Cl-2-cPrO-3-pyridyl)]; lactam 3-C)
Solution: 20

Problem: Next record, please: CC(C)C[C@@H]1NC(=O)[C@@H](N(C)C(=O)[C@@H](NC(=O)[C@@H]2C[C@@H](F)CN2C(=O)C2(C(F)(F)F)CCC2)C2CC2)CC=CCCCCN(C)C(=O)[C@H](Cc2cc(F)ccc2-c2cncnc2)N(C)C1=O [Example 41]
Solution: 20

---

target_or_test_system: CyclinE1/CDK2 (Homo sapiens, UniProt P24864)
Construct: purchased Eurofins, discovery 14-475
protocol_details: Fluorescence Polarization (FP) competitive binding assay, Cyclin E1/Cdk2;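 note: readings taken after two-hour equilibration at room temperature in HEPES buffer with NaCl, DTT, NP-40 and BSA, IC50 fitted from eight-concentration serial dilution series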
settings: 10 nM Cyclin E1/Cdk2, 2 nM FAM probe; average of 2-3 independent experiments; read-out: Cyclin E FP IC50
*1 amine or outer side, *2 acyl side, *3 side chain or, on linkers, in order; H or OH if unused. Where a SMILES comes first, the peptide text is derived from it. Bridges are numbered along the chain shown (N, C = ends). [ ]: non-standard residue; d: D form. The star is where a group is joined. NMePhe(2-(4-MorPh),5-Cl) = CN[C@@H](Cc1cc(Cl)ccc1-c1ccc(N2CCOCC2)cc1)C(=O)O; X82 = CN([C@@H](Cc1cc(Cl)ccc1-c1cnn(S(C)(=O)=O)c1)C(=O)[*:2])[*:1]; X136 = CN1CCOc2cc(-c3ccc(Cl)cc3C[C@@H](C(=O)[*:2])N(C)[*:1])ccc21; NMePhe(5-Cl,2-O(2-Pym)) = CN[C@@H](Cc1cc(Cl)ccc1Oc1ncccn1)C(=O)O; NMehhhLys(Me) = CN([C@@H](CCCCCCCN(C)[*:3])C(=O)[*:2])[*:1]; X22 = CN([C@@H](Cc1cc(Cl)ccc1-c1cnn(C)c1)C(=O)[*:2])[*:1]; NMe(hhhLys) = CN([C@@H](CCCCCCCN[*:3])C(=O)[*:2])[*:1]; Oxane2carbonyl(2R-CF3) = O=C([C@@]1(C(F)(F)F)CCCCO1)*; X143 = CN([C@@H](Cc1cc(F)cc2cccnc12)C(=O)[*:2])[*:1]; Cyclobutanecarbonyl(1-CF3) = O=C(C1(C(F)(F)F)CCC1)*; cBuCO(3,3-F2-1-CF3) = O=C(C1(C(F)(F)F)CC(F)(F)C1)*; Pro(trans-4-F) = O=C(O)[C@@H]1C[C@@H](F)CN1; Pivaloyl(3,3,3-F3) = CC(C)(C(=O)*)C(F)(F)F; Gly(cPr) = N[C@H](C(=O)O)C1CC1
I'd appreciate it if you could supply pIC50 values for the items below.
The read-out pIC50 is expressed as -log10 of concentration in moles per litre.

Problem: Enter reported pIC50 observed with CyclinE1/CDK2 (Homo sapiens, UniProt P24864) for CC(C)C[C@@H]1NC(=O)[C@@H](N(C)C(=O)[C@@H](NC(=O)[C@@H]2C[C@@H](F)CN2C(=O)[C@@]2(C(F)(F)F)CCCCO2)C2CC2)CCCCCCCN(C)C(=O)[C@H](Cc2cc(Cl)ccc2-c2cnn(S(C)(=O)=O)c2)N(C)C1=O [Example 299] ({Oxane2carbonyl(2R-CF3)}-[Pro(trans-4-F)][Gly(cPr)][NMehhhLys(Me)]L[X82]; lactam 3-C)
Solution: 6.89

Problem: Next record, please: CC(C)C[C@@H]1NC(=O)[C@@H](N(C)C(=O)[C@@H](NC(=O)[C@@H]2C[C@@H](F)CN2C(=O)C2(C(F)(F)F)CC(F)(F)C2)C2CC2)CCCCCCCN(C)C(=O)[C@H](Cc2cc(Cl)ccc2-c2ccc3c(c2)OCCN3C)N(C)C1=O [Example 342] ({cBuCO(3,3-F2-1-CF3)}-[Pro(trans-4-F)][Gly(cPr)][NMehhhLys(Me)]L[X136]; lactam 3-C)
Solution: 6.23

Problem: Next record, please: CC(C)C[C@@H]1NC(=O)[C@@H](N(C)C(=O)[C@@H](NC(=O)[C@@H]2C[C@@H](F)CN2C(=O)C(C)(C)C(F)(F)F)C2CC2)CCCCCCCN(C)C(=O)[C@H](Cc2cc(Cl)ccc2-c2ccc(N3CCOCC3)cc2)N(C)C1=O [Example 335] ({Pivaloyl(3,3,3-F3)}-[Pro(trans-4-F)][Gly(cPr)][NMehhhLys(Me)]L[NMePhe(2-(4-MorPh),5-Cl)]; lactam 3-C)
Solution: 6.80

Problem: Next record, please: CC(C)C[C@@H]1NC(=O)[C@@H](N(C)C(=O)[C@@H](NC(=O)[C@@H]2C[C@@H](F)CN2C(=O)C2(C(F)(F)F)CC(F)(F)C2)C2CC2)CCCCCCCN(C)C(=O)[C@H](Cc2cc(F)cc3cccnc23)N(C)C1=O [Example 423] ({cBuCO(3,3-F2-1-CF3)}-[Pro(trans-4-F)][Gly(cPr)][NMehhhLys(Me)]L[X143]; lactam 3-C)
Solution: 6.15

Problem: Next record, please: CC(C)C[C@@H]1NC(=O)[C@@H](N(C)C(=O)[C@@H](NC(=O)[C@@H]2C[C@@H](F)CN2C(=O)C2(C(F)(F)F)CC(F)(F)C2)C2CC2)CCCCCCCN(C)C(=O)[C@H](Cc2cc(Cl)ccc2Oc2ncccn2)N(C)C1=O [Example 155] ({cBuCO(3,3-F2-1-CF3)}-[Pro(trans-4-F)][Gly(cPr)][NMehhhLys(Me)]L[NMePhe(5-Cl,2-O(2-Pym))]; lactam 3-C)
Solution: 6.39

Problem: Next record, please: CC(C)C[C@@H]1NC(=O)[C@@H](N(C)C(=O)[C@@H](NC(=O)[C@@H]2C[C@@H](F)CN2C(=O)C2(C(F)(F)F)CCC2)C2CC2)CCCCCCCNC(=O)[C@H](Cc2cc(Cl)ccc2-c2cnn(C)c2)N(C)C1=O [Example 70] ({Cyclobutanecarbonyl(1-CF3)}-[Pro(trans-4-F)][Gly(cPr)][NMe(hhhLys)]L[X22]; lactam 3-C)
Solution: 6.54

Where do the numbers come from? From patent US20240408169A1.
